This section presents compounds with their documented MIC values.
Test system: Mycobacterium tuberculosis
Format: functional, H37Rv
experimental setup: time 7-14 day

# smiles representation, MIC [µM]
rows = [
    ("Cc1cc(C)n(-c2nc(O)cc(-c3ccccc3)n2)n1", 18),
    ("Cc1cc(C)n(-c2nc(C(F)(F)F)cc(=O)[nH]2)n1", 170),
    ("CCNc1cc(C)nn1-c1nc(-c2cccnc2)cc(=O)[nH]1", 41),
    ("Cc1ccc(Nc2cc(C)nn2-c2nc(C)cc(O)n2)cc1", 55),
    ("COCCNc1cc(C)nn1-c1nc(C(F)(F)F)cc(=O)[nH]1", 39),
]
